system: TNF-α converting enzyme (TACE) (Homo sapiens, UniProt P78536)
Sequence (P78536 215-824, species assumed): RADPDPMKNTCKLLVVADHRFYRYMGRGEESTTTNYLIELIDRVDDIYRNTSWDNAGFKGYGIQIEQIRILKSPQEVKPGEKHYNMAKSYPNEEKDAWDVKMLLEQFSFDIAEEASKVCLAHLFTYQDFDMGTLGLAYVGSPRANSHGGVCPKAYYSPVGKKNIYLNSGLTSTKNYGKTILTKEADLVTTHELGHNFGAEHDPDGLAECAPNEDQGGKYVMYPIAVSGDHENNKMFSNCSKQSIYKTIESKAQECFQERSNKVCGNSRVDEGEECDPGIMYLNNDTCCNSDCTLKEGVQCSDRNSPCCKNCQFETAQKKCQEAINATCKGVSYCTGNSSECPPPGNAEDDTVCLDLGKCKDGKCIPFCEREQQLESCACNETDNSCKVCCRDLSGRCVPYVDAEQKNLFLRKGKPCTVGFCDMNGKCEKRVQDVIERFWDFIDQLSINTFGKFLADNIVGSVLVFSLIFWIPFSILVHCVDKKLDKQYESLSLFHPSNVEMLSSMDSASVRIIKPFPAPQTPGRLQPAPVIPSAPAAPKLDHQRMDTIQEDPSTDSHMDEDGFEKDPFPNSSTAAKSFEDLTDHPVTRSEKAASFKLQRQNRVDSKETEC
methodSummary: TACE inhibition (fluorescent peptidyl substrate)
Format: biochemical
experimentalContext: read-out: TACE IC50
recordedEndpoint: IC50 (nM)
Respond with the bare value in nM.

Task: Give recorded IC50. CC#CCOc1ccc(S(=O)(=O)N2CCN(C(=O)OC)CC2C(=O)NO)cc1 (stereo not drawn)
Output: 9

Task: For the compound CC#CCOc1ccc(S(=O)(=O)N2CCN(C(=O)N(C)c3ccccc3)CC2C(=O)NO)cc1 (stereo not drawn) , give its measured IC50 value.
Output: 20

Task: Respond only with IC50 recorded for CC#CCOc1ccc(S(=O)(=O)N2CCN(C(=O)c3cccs3)CC2C(=O)NO)cc1 (stereo not drawn)
Output: 12

Task: Query IC50 for CC#CCOc1ccc(S(=O)(=O)N(C)[C@@H](C(=O)NO)[C@H]2CC[C@H](O)CC2)cc1
Output: 23

Task: Supply IC50 value. Item: CC#CCOc1ccc(S(=O)(=O)NC(C(=O)NO)c2ccc(OCCN(C)C)cc2)cc1 (stereo not drawn)
Output: 53

Task: Write down IC50 measured for item CC#CCOc1ccc(S(=O)(=O)NC(C(=O)NO)C(C)(C)SCC)cc1 (stereo not drawn)
Output: 12

Task: Assign IC50 to the following record: C#CCN(C(C(=O)NO)C(C)C)S(=O)(=O)c1ccc(OCC#CC)cc1 (stereo not drawn)
Output: 55

Task: Return the recorded IC50 value; entry: CC#CCOc1ccc(S(=O)(=O)N(C)C2(C(=O)NO)CCCCC2)cc1
Output: 574

Task: Please report the measured IC50 for CC#CCOc1ccc(S(=O)(=O)N(C)C(C(=O)NO)C(C)(C)SCCCN2CCN(C)CC2)cc1 (stereo not drawn)
Output: 157

Task: Return reported IC50. Input compound: CC#CCOc1ccc(S(=O)(=O)N(C)[C@@H](C(=O)NO)C2CCC(N(CC)CC)CC2)cc1 (stereo partly drawn)
Output: 376

Task: Provide one value: measured IC50 of CC#CCOc1ccc(S(=O)(=O)N2CCN(C(=O)N3CCCC3)CC2C(=O)NO)cc1 (stereo not drawn)
Output: 28

Task: Please indicate IC50 recorded for CC#CCOc1ccc(S(=O)(=O)NC2(C(=O)NO)CCNCC2)cc1
Output: 50

Task: Could you please provide reported IC50 for CC#CCOc1ccc(S(=O)(=O)N(C)C(C(=O)NO)c2ccc(OCCN3CCCC3=O)cc2)cc1 (stereo not drawn) ? Thanks!
Output: 35

Task: State, in one line, measured IC50 of CC#CCOc1ccc(S(=O)(=O)N(C)C(C(=O)NO)C(C)(C)SC)cc1 (stereo not drawn)
Output: 29

Task: Give IC50 for the following compound: CC#CCOc1ccc(S(=O)(=O)N(C)C(C(=O)NO)c2ccc(OCCCNC(=O)OC(C)(C)C)cc2)cc1 (stereo not drawn)
Output: 199

Task: Report IC50, nothing else, for this compound: CC#CCOc1ccc(S(=O)(=O)N(CC#CCN2CCN(C)CC2)C(C(=O)NO)C(C)C)cc1 (stereo not drawn)
Output: 108

Task: Read off the recorded IC50 for CC#CCOc1ccc(S(=O)(=O)N(CCC)C(C(=O)NO)C(C)C)cc1 (stereo not drawn)
Output: 66

Task: Return IC50 (reported value) for this compound: CC#CCOc1ccc(S(=O)(=O)NC(C(=O)NO)C(C)(C)SCCN2CCOCC2)cc1 (stereo not drawn)
Output: 64

Task: Using the record for CC#CCOc1ccc(S(=O)(=O)NC(C(=O)NO)C(C)(C)SCCC)cc1 (stereo not drawn) , state its measured IC50.
Output: 15

Task: Provide measured IC50 value, entry: CC#CCOc1ccc(S(=O)(=O)N2CCCSC[C@@H]2C(=O)NO)cc1
Output: 20

Task: Please give the documented IC50 of CC#CCOc1ccc(S(=O)(=O)N[C@@H](C(=O)NO)c2ccc(OCCNC(C)=O)cc2)cc1
Output: 9.4

---

system: MMP-1 (Homo sapiens, UniProt P03956)
Sequence (P03956 100-469): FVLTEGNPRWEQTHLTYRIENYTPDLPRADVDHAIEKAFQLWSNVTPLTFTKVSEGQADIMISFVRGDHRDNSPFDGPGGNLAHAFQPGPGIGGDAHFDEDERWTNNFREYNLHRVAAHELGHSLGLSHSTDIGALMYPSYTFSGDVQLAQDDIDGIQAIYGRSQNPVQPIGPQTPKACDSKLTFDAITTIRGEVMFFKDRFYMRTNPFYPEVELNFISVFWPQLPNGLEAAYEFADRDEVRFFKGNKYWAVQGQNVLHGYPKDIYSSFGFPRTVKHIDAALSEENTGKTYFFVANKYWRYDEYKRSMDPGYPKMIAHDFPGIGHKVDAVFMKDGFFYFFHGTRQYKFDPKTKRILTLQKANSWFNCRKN
methodSummary: MMP-1 inhibition (thiopeptide or fluorescent peptide substrate)
Type: biochemical
experimentalContext: read-out: MMP-1 IC50
Where a name gives a salt, the structure may show the parent alone.
Under this convention, T denotes IC50 strictly below 2 µM and F denotes IC50 at or above 2 µM.

Task: Strictly below 2 µM: is that where IC50 of CC#CCOc1ccc(S(=O)(=O)NC(CSC)C(=O)NO)cc1 (stereo not shown) sits?
Output: T

Task: Input CC#CCOc1ccc(S(=O)(=O)N2CCN(C(=O)CC)CC2C(=O)NO)cc1 (stereo not shown) ; condition: IC50 strictly below 2 µM. Does it hold?
Output: T

Task: Problem: For the compound CC#CCOc1ccc(S(=O)(=O)NC(C(=O)NO)C(C)(C)SCC(=O)OC(C)(C)C)cc1 (stereo not shown) , is IC50 under 2 µM?
Output: F

Task: Report whether reported IC50 is lower than 2 µM (strictly) for CC#CCOc1ccc(S(=O)(=O)NC2(C(=O)NO)CCNCC2)cc1
Output: F

Task: Hi there! Is IC50 for CC#CCOc1ccc(S(=O)(=O)NC(C(=O)NO)c2ccc(OCCN(C)C(=O)OC(C)(C)C)cc2)cc1 (stereo not shown) below 2 µM, do you know?
Output: F

Task: Bench note: check whether CC#CCOc1ccc(S(=O)(=O)N2CCNCCC2C(=O)NO)cc1 (stereo not shown) shows IC50 below 2 µM
Output: T

Task: In the record for CC#CCOc1ccc(S(=O)(=O)N(C)C(C(=O)NO)C(C)(C)SCCN2CCOCC2)cc1 (stereo not shown) [Example 140, Hydrochloride] , is IC50 less than 2 µM?
Output: T

Task: Please check: IC50 for CC#CCOc1ccc(S(=O)(=O)N2CCN(C(=O)Nc3cc(Cl)cc(Cl)c3)CC2C(=O)NO)cc1 (stereo not shown) , strictly under 2 µM or not?
Output: T

---

Give measured IC50 for each item. Keep answers brief.
system: MMP-1 (Homo sapiens, UniProt P03956)
methodSummary: MMP-1 inhibition (thiopeptide or fluorescent peptide substrate)
Assay type: biochemical
experimentalContext: read-out: MMP-1 IC50

Task: Give recorded IC50. CC#CCOc1ccc(S(=O)(=O)NC(C(=O)NO)c2ccc(OCCOCCOC)cc2)cc1 (centres unmarked) [Example 210]
Output: > 10000 nM

Task: Tell me its IC50 given CC#CCOc1ccc(S(=O)(=O)N2CSC(C)(C)[C@@H]2C(=O)NO)cc1 [Example 286] as the entry.
Output: 3040 nM

Task: Fill in reported IC50 for this entry: CC#CCOc1ccc(S(=O)(=O)N(C)C(C(=O)NO)C(C)(C)SCCn2ccnc2)cc1 (centres unmarked) [Example 144]
Output: 16 nM

Task: Please list IC50 recorded for the molecule CC#CCOc1ccc(S(=O)(=O)NC(C(=O)NO)c2ccc(OCCc3scnc3C)cc2)cc1 (centres unmarked) [Example 208]
Output: > 10000 nM

Task: Answer with reported IC50 of CC#CCOc1ccc(S(=O)(=O)N(C)[C@@H](C(=O)NO)c2ccc(O[C@H]3CCNC3)cc2)cc1 [Example 190]
Output: 527 nM

Task: Give the reported value of IC50 for this record: CC#CCOc1ccc(S(=O)(=O)N(C)[C@@H](C(=O)NO)c2ccc(O[C@H]3CCN(C(=O)OC(C)(C)C)C3)cc2)cc1 [Example 189]
Output: 2440 nM

Task: Tell me measured IC50 for CC#CCOc1ccc(S(=O)(=O)N(CCCN2CCOCC2)C(C(=O)NO)C(C)C)cc1 (centres unmarked) [Example 119] please.
Output: 129 nM

Task: Give recorded IC50. CC#CCOc1ccc(S(=O)(=O)N(C)C(C(=O)NO)c2ccc(OCCN(C)C(=O)OC(C)(C)C)cc2)cc1 (centres unmarked) [Example 191]
Output: 1150 nM

---

For each record, write down the corresponding IC50.
system: MMP-1 (Homo sapiens)
methodSummary: MMP-1 inhibition (thiopeptide or fluorescent peptide substrate)
Type: biochemical
experimentalContext: read-out: MMP-1 IC50
Report the figure in nM without appending any unit label.

Task: Please give measured IC50 of the following entry: CC#CCOc1ccc(S(=O)(=O)N(C)C(C(=O)NO)C(C)(C)SCCN2CCCC2C(=O)OC)cc1 (stereo not drawn)
Output: 18

Task: Supply recorded IC50 for CC#CCOc1ccc(S(=O)(=O)N[C@@H](C(=O)NO)C(C)(C)C)cc1 here.
Output: 880

Task: Quote IC50 reported for CC#CCOc1ccc(S(=O)(=O)N[C@@H](C(=O)NO)C2CCC(O)CC2)cc1 (stereo partly drawn) please.
Output: 1040

Task: Provide one value: measured IC50 of CC#CCOc1ccc(S(=O)(=O)N2CCN(C(=O)N(C)c3ccccc3)CC2C(=O)NO)cc1 (stereo not drawn)
Output: 1640

Task: Report IC50 for CC#CCOc1ccc(S(=O)(=O)N(Cc2cccnc2)C(CSCc2ccccc2)C(=O)NO)cc1 (stereo not drawn)
Output: 111

Task: Kindly indicate its recorded IC50. Item: CC#CCOc1ccc(S(=O)(=O)N(CCN2CCOCC2)C(C(=O)NO)C(C)C)cc1 (stereo not drawn)
Output: 244

Task: Indicate its recorded IC50; the compound in question is CC#CCOc1ccc(S(=O)(=O)N2Cc3ccccc3CC2C(=O)NO)cc1 (stereo not drawn)
Output: 121

Task: Find the measured IC50 of CC#CCOc1ccc(S(=O)(=O)N(C)C(C(=O)NO)C(C)(C)SCCN(CC)CC)cc1 (stereo not drawn) and report it.
Output: 72

Task: For CC#CCOc1ccc(S(=O)(=O)N(CC#CCN(CC)CC)C(C(=O)NO)C(C)C)cc1 (stereo not drawn) , write its IC50.
Output: 212

Task: // Input: CC#CCOc1ccc(S(=O)(=O)N(CCCN(CC)CC)C(C(=O)NO)C(C)C)cc1 (stereo not drawn) . Output its IC50 only.
Output: 121

Task: Check the records and state IC50 for CC#CCOc1ccc(S(=O)(=O)N[C@@H](C(=O)NO)[C@@H](C)CC)cc1
Output: 1740

Data credit: patent US6716833B2
